# System: Trichophyton rubrum
# procedure-details: Antifungal activity against Trichophyton rubrum Cmccftla after 24 hrs by spectrophotometric analysis
# Format: functional
Please respond with reported MIC80 for every item in the list.

- compound: "Cc1ccnc2c1[C@H](O)c1sc([N+](=O)[O-])cc1[C@H]2O (relative stereo)"
  test-result: "> 64 µg/mL"
- compound: "Cc1ccnc2c1C(=O)c1scc(N)c1C2=O"
  test-result: "> 64 µg/mL"

Lab note: next compound to report on.
Which MIC80 reading was recorded for the compound `Cc1ccnc2c1C(=O)c1occc1C2=O` ?
> 64 µg/mL
